Test summary: Liver microsomal stability, dog
Format: in vitro ADME
Assay setup: pooled liver microsomes, pH 7.4; dog liver microsomes 0.5 mg/mL, 1 μM compound, NADPH, 37° C.; read-out: Liver Microsomal Stability t½, dog
Recorded metric: half-life at 1 μM (h)

Smiles representation: O=C(N[C@H]1N=C(c2ccccc2)c2cccc(F)c2NC1=O)c1cnn(C2COC2)c1Oc1ccc(Cl)cc1F
Endpoint unit: h
Reading: 2.33
--
Smiles representation: O=C(N[C@H]1N=C(c2ccccc2)c2cccc(F)c2NC1=O)c1cnn(C2COC2)c1Oc1c(F)cc(Cl)cc1F
Endpoint unit: h
Reading: 2.9
--
Smiles representation: CCn1ncc(C(=O)N[C@H]2N=C(c3ccccc3)c3ccccc3NC2=O)c1Oc1c(F)cc(C)cc1F
Endpoint unit: h
Reading: 0.643
--
Smiles representation: O=C(N[C@H]1N=C(c2ccccc2)c2cccc(F)c2NC1=O)c1cnn(C2CCOCC2)c1Oc1ccc(Cl)cc1F
Endpoint unit: h
Reading: 1.95

====

Test summary: Liver microsomal stability, rat
Type: in vitro ADME
Assay setup: pooled liver microsomes, pH 7.4; rat liver microsomes 0.5 mg/mL, 1 μM compound, NADPH, 37° C.; read-out: Liver Microsomal Stability t½, rat
// reported half-life at 1 μM for each item listed
Recorded metric: half-life at 1 μM (min)

Smiles representation: O=C(N[C@H]1N=C(c2ccccc2)c2cccc(F)c2NC1=O)c1cnn(C2COC2)c1Oc1c(F)cc(Cl)cc1F
Recorded metric: half-life at 1 μM
Endpoint unit: min
Reading: 42.3
//
Smiles representation: CCn1ncc(C(=O)N[C@H]2N=C(c3ccccc3)c3ccccc3NC2=O)c1Oc1c(F)cc(C)cc1F
Recorded metric: half-life at 1 μM
Endpoint unit: min
Reading: 5
//
Smiles representation: O=C(N[C@H]1N=C(c2ccccc2)c2cccc(F)c2NC1=O)c1cnn(C2COC2)c1Oc1ccc(Cl)cc1F
Recorded metric: half-life at 1 μM
Endpoint unit: min
Reading: 38.3
//
Smiles representation: O=C(N[C@H]1N=C(c2ccccc2)c2cccc(F)c2NC1=O)c1cnn(C2CCOCC2)c1Oc1ccc(Cl)cc1F
Recorded metric: half-life at 1 μM
Endpoint unit: min
Reading: 19.7

Entry source: patent US12384764B2
